# Target under test: T1, biotinylated human PD-L1 (human, UniProt Q9NZQ7 19-239, limits assumed, biotinylated (sites not given))
# T1 construct: Bought from R&D Systems; also called biotinylated-PD-L1; human PD-L1 biotin
# T1 sequence (Q9NZQ7 19-239 limits assumed): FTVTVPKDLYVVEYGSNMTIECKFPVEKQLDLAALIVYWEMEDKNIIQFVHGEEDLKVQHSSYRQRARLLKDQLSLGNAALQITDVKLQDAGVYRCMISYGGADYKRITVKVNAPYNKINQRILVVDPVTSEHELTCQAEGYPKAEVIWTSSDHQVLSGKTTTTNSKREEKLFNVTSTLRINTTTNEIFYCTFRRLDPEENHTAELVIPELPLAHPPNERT
# Run description: competition ELISA, Fab with biotinylated PD-L1 on coated PD-1-Fc; ratio of IC50 values
Readout: Ratio pH 6:7.4

Problem: Which Ratio pH 6:7.4 reading was recorded for the binder Fab 8A04 (Fab, V domains shown, Purified Fab prepared from IgG with the Pierce kit; also called 8A04 Fab) VH: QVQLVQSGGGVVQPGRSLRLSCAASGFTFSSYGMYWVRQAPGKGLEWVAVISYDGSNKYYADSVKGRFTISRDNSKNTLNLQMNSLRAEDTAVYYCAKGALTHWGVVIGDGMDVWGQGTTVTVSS VL: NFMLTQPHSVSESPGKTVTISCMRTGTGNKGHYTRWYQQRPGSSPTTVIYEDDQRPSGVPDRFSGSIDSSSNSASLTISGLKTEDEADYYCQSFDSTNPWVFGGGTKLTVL ?
Solution: 6.66

Problem: Next binder: Fab 8G08 (Fab, V domains shown, Purified Fab prepared from IgG with the Pierce kit; also called 8G08 Fab) VH: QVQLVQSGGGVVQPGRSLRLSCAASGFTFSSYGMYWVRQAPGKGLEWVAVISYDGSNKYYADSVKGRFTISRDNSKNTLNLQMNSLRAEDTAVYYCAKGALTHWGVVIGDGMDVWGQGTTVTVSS VL: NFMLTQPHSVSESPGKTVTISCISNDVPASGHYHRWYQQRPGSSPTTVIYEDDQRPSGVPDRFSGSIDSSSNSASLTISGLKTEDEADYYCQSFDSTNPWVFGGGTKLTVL
Solution: > 8.26

Problem: Next binder: Fab 8D04 (Fab, V domains shown, Purified Fab prepared from IgG with the Pierce kit; also called 8D04 Fab) VH: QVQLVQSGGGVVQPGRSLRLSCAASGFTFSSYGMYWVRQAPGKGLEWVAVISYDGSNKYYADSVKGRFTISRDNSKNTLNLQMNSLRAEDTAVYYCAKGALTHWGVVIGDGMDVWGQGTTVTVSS VL: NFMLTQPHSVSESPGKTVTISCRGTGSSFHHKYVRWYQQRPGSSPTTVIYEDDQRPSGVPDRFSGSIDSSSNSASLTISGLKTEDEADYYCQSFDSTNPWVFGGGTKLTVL
Solution: > 2.36

Problem: Next binder: Fab 8D06 (Fab, V domains shown, Purified Fab prepared from IgG with the Pierce kit; also called 8D06 Fab) VH: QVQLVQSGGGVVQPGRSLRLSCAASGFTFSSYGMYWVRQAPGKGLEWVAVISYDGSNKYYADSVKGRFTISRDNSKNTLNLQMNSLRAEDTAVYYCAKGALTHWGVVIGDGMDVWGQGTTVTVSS VL: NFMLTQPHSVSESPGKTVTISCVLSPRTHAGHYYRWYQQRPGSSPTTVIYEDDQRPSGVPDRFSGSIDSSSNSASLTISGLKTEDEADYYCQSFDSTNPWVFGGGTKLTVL
Solution: > 7.63

Problem: Next binder: Fab 8B06 (Fab, V domains shown, Purified Fab prepared from IgG with the Pierce kit; also called 8B06 Fab) VH: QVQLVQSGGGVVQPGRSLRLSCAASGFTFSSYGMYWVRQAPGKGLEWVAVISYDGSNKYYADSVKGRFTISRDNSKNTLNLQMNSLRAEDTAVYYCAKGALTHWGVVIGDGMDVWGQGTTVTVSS VL: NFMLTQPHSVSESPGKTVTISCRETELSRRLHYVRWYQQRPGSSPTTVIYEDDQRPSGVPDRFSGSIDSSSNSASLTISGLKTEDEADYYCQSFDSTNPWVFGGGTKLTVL
Solution: > 6.37
